System name: Matrix metalloproteinase-16 (Homo sapiens, UniProt P51512)
Sequence (P51512 whole entry, the tested form may be a part): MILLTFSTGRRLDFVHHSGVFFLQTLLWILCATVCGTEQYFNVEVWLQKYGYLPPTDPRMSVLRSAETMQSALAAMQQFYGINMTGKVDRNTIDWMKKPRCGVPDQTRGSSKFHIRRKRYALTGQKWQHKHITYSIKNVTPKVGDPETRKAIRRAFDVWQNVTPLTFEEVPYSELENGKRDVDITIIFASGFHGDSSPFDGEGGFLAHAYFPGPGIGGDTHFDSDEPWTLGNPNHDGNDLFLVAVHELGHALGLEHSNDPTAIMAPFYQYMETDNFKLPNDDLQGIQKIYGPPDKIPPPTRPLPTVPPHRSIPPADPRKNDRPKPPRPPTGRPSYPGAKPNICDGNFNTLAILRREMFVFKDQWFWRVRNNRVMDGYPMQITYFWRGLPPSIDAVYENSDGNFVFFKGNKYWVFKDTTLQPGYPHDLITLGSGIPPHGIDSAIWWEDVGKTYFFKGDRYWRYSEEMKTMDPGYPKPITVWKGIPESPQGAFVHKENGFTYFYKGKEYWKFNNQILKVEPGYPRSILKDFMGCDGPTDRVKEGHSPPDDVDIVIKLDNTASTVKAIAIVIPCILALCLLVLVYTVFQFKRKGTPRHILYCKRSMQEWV
Protocol description: Inhibition of human recombinant pro-MMP16 catalytic domain after 4 hrs by fluorimetry
pIC50: −log10 of the molar value.
Reported pIC50 values for a set of compounds
Assay metric: pIC50

[
  {
    "Compound": "COc1ccc(Oc2ccc(S(=O)(=O)c3ccccc3CC(=O)O)cc2)cc1",
    "Assay metric": "pIC50",
    "Result": 5.19
  },
  {
    "Compound": "COc1ccc(-c2ccc(S(=O)(=O)c3ccccc3C(C)C(=O)O)cc2)cc1 (racemic)",
    "Assay metric": "pIC50",
    "Result": 5.96
  },
  {
    "Compound": "COc1ccc(Oc2ccc(S(=O)(=O)c3ccccc3C(=O)NO)cc2)cc1",
    "Assay metric": "pIC50",
    "Result": 5.22
  },
  {
    "Compound": "O=C(NO)c1ccccc1S(=O)(=O)c1ccc(Oc2ccccc2)cc1",
    "Assay metric": "pIC50",
    "Result": 5.89
  },
  {
    "Compound": "COc1ccc(S(=O)(=O)c2ccccc2C(=O)NO)cc1",
    "Assay metric": "pIC50",
    "Result": 4.51
  },
  {
    "Compound": "C[S+]([O-])c1ccc(Oc2ccc(S(=O)(=O)c3ccccc3C(=O)NO)cc2)cc1 (stereo not given)",
    "Assay metric": "pIC50",
    "Result": 3.96
  },
  {
    "Compound": "COc1ccc(-c2ccc(S(=O)(=O)c3ccccc3CC(=O)O)cc2)cc1",
    "Assay metric": "pIC50",
    "Result": 6.14
  },
  {
    "Compound": "O=C(O)Cc1ccccc1S(=O)(=O)c1ccc(-c2ccccc2)cc1",
    "Assay metric": "pIC50",
    "Result": 5.37
  },
  {
    "Compound": "COc1ccc(S(=O)(=O)c2ccccc2CC(=O)O)cc1",
    "Assay metric": "pIC50",
    "Result": 4.03
  },
  {
    "Compound": "O=C(Cc1ccccc1S(=O)(=O)c1ccc(-c2ccccc2)cc1)NO",
    "Assay metric": "pIC50",
    "Result": 6.66
  }
]

----------
System name: Interstitial collagenase (Homo sapiens)
Sequence (P03956 whole entry): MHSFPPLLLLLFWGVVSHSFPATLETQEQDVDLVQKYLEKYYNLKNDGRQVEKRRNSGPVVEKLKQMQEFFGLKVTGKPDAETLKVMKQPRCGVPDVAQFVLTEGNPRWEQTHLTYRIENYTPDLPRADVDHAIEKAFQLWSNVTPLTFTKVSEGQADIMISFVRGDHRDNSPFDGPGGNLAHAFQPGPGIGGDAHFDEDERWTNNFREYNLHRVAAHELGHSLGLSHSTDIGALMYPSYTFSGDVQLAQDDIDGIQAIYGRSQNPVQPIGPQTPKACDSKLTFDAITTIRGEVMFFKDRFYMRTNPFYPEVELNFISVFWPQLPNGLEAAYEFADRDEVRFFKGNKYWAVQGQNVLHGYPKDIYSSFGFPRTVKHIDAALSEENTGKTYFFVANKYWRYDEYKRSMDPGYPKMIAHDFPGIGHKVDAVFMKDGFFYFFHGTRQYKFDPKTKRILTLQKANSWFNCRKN
Protocol description: Inhibition of para-aminophenylmercuric acetate-activated human pro-MMP1 after 4 hrs by fluorimetry

[
  {
    "Molecule": "COc1ccc(-c2ccc(S(=O)(=O)c3ccccc3CC(=O)NO)cc2)cc1",
    "Relation": "=",
    "IC50, µM": 8.3
  },
  {
    "Molecule": "CC(C(=O)NO)c1ccccc1S(=O)(=O)c1ccc(-c2ccccc2)cc1 (racemic)",
    "Relation": "=",
    "IC50, µM": 12
  },
  {
    "Molecule": "C[S+]([O-])c1ccc(Oc2ccc(S(=O)(=O)c3ccccc3C(=O)NO)cc2)cc1 (configuration not stated)",
    "Relation": ">",
    "IC50, µM": 200
  },
  {
    "Molecule": "COc1ccc(Oc2ccc(S(=O)(=O)c3ccccc3C(=O)NO)cc2)cc1",
    "Relation": ">",
    "IC50, µM": 10
  },
  {
    "Molecule": "COc1ccc(-c2ccc(S(=O)(=O)c3ccccc3CC(=O)O)cc2)cc1",
    "Relation": "=",
    "IC50, µM": 4.4
  },
  {
    "Molecule": "COc1ccc(S(=O)(=O)c2ccccc2C(=O)NO)cc1",
    "Relation": ">",
    "IC50, µM": 100
  },
  {
    "Molecule": "CC(C)ON([C@@H](C(=O)NO)C(C)C)S(=O)(=O)c1ccc(-c2ccccc2)cc1",
    "Relation": "=",
    "IC50, µM": 0.49
  },
  {
    "Molecule": "O=C(O)Cc1ccccc1S(=O)(=O)c1ccc(-c2ccccc2)cc1",
    "Relation": "=",
    "IC50, µM": 23
  },
  {
    "Molecule": "COc1ccc(Oc2ccc(S(=O)(=O)c3ccccc3CC(=O)NO)cc2)cc1",
    "Relation": "=",
    "IC50, µM": 3.5
  },
  {
    "Molecule": "COc1ccc(-c2ccc(S(=O)(=O)c3ccccc3C(=O)NO)cc2)cc1",
    "Relation": "=",
    "IC50, µM": 28
  },
  {
    "Molecule": "COc1ccc(S(=O)(=O)c2ccccc2CC(=O)O)cc1",
    "Relation": ">",
    "IC50, µM": 100
  },
  {
    "Molecule": "COc1ccc(Oc2ccc(S(=O)(=O)c3ccccc3CC(=O)O)cc2)cc1",
    "Relation": ">",
    "IC50, µM": 10
  },
  {
    "Molecule": "O=C(NO)c1ccccc1S(=O)(=O)c1ccc(Oc2ccccc2)cc1",
    "Relation": ">",
    "IC50, µM": 10
  },
  {
    "Molecule": "COc1ccc(-c2ccc(S(=O)(=O)c3ccccc3C(C)C(=O)O)cc2)cc1 (racemic)",
    "Relation": ">",
    "IC50, µM": 10
  },
  {
    "Molecule": "CC(C)ON([C@@H](C(=O)O)C(C)C)S(=O)(=O)c1ccc(-c2ccccc2)cc1",
    "Relation": ">",
    "IC50, µM": 100
  },
  {
    "Molecule": "COc1ccc(S(=O)(=O)c2ccccc2CC(=O)NO)cc1",
    "Relation": "=",
    "IC50, µM": 4.1
  },
  {
    "Molecule": "COc1ccc(-c2ccc(S(=O)(=O)c3ccccc3C(C)C(=O)NO)cc2)cc1 (racemic)",
    "Relation": ">",
    "IC50, µM": 10
  }
]
